Overview of recorded DE for various molecules
ASSAY_DETAILS: Yellowness color of solutions in butyl acetate, Macbeth Color-Eye (Example 75)
Format: physicochemical
ASSAY_CONTEXT: corresponding Yellowness Index value; 30 mg/100 mL in butyl acetate

MOL	DE
CCCCS(=O)(=O)c1ccc2nn(-c3cc(C(C)(C)CC(C)(C)C)cc(C(C)(C)c4ccccc4)c3O)nc2c1	3.35
COC(=O)c1ccc2nn(-c3cc(C(C)(C)CC(C)(C)C)cc(C(C)(C)c4ccccc4)c3O)nc2c1	2.25
CC(C)CCCCCOC(=O)CCc1cc(-n2nc3ccc(C(F)(F)F)cc3n2)c(O)c(C(C)(C)C)c1	0.72
CC(C)(C)CC(C)(C)c1cc(-n2nc3ccccc3n2)c(O)c(C(C)(C)c2ccccc2)c1	0.07
CC(C)(C)CC(C)(C)c1ccc(O)c(-n2nc3ccc(C(F)(F)F)cc3n2)c1	0.27
CC(C)(C)CC(C)(C)c1cc(-n2nc3ccc(S(=O)(=O)c4ccccc4)cc3n2)c(O)c(C(C)(C)c2ccccc2)c1	4.42
CC(C)(C)CC(C)(C)c1cc(-n2nc3ccc(C(F)(F)F)cc3n2)c(O)c(C(C)(C)c2ccccc2)c1	1.28
